biological target: Tyrosine-protein kinase Fes/Fps (Homo sapiens); conditions: at 1 µM;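 note: mean inhibition of FES from the GSK PKIS kinase inhibitor screening set, assayed by Nanosyn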
property-label: inhibition (%)
Hi! Could you send only the number? It should be in %, unit omitted.

Report inhibition for COc1cc(N2CCN(C(C)C)CC2)ccc1Nc1nc(Nc2ccc(F)cc2C(=O)NC[C@@H](O)CO)c2cc[nH]c2n1 please. 20.1

Lookup CN(C)c1ccc2c(c1)/C(=C/Nc1ccc(S(N)(=O)=O)cc1)C(=O)N2 0.4

Lookup COc1cc(C)c(N(C)C(=O)CN(C)C)cc1Nc1nc(Nc2cccc(F)c2C(N)=O)c2cc[nH]c2n1 10.7

Lookup NC(=O)c1ccc(Oc2nccc(-c3c(-c4ccc(F)cc4)ncn3C3CCNCC3)n2)cc1 4.5

Lookup O=C1Nc2ccccc2/C1=C/Nc1ccc(-n2cncn2)cc1 2.63

Lookup CCc1nccc2c1nc(-c1nonc1N)n2CC 1.26

Lookup O=C(Nc1n[nH]c2nc(-c3ccco3)ccc12)C1CC1 1.51

Lookup NS(=O)(=O)c1ccc(Nc2cc(-c3ccc(O)c(F)c3)n[nH]2)cc1 -0.97

Lookup COc1cc2ncn(-c3cc(OCCc4ccccc4)c(C(N)=O)s3)c2cc1OC 1.71

Lookup CN1CCN(CCCNc2nc3ccc(Oc4ccc(NC(=O)Nc5cc(C(F)(F)F)ccc5F)cc4)cc3[nH]2)CC1 1.53

Lookup CNC(=O)c1cncc(/C=C/c2c(C)cccc2C)c1 -0.68

Lookup CCS(=O)(=O)c1ccc(OC)c(Nc2ncc(-c3ccccc3Cl)o2)c1 0.33

Lookup C[C@@H](Oc1cc(-n2cnc3ccc(OCC4CCN(C)CC4)cc32)sc1C(N)=O)c1ccccc1Cl 7.97

Lookup O=C(Nc1n[nH]c2cc(-c3ccccc3)ccc12)C1CC1 2.53

Lookup COc1cccc(-n2cnc3c(N/N=C/c4ccncc4)ncnc32)c1 -1.27

Lookup CN(c1ccc(NC(=O)Nc2c(Cl)cccc2Cl)cc1)c1ccnc(Nc2cccc(CS(C)(=O)=O)c2)n1 22.5

Lookup O=C(Nc1n[nH]c2cc(-c3cc(F)ccc3F)ccc12)C1CC1 3.45

Lookup Cc1ccc(C(=O)NC(C)C)cc1-c1ccc(C(=O)NCC2CC2)cc1 -3

Lookup NC(=O)Cc1ccccc1Oc1nccc(-c2c(-c3ccc(F)cc3)ncn2C2CCNCC2)n1 2.12

Lookup CCS(=O)(=O)c1ccc(OC)c(Nc2ncc(-c3cccc(-c4ccccc4F)c3)o2)c1 0.23

Lookup Fc1ccc(-c2ncn(C3CCNCC3)c2-c2ccnc(Oc3ccc(F)c(F)c3)n2)cc1 2.2

Lookup COc1ccc(C2=C(N3CCc4ccccc43)C(=O)NC2=O)cc1 5.04

Lookup COc1ccc2cc(-c3c(-c4ccncc4)nc(-c4ccc([S+](C)[O-])cc4C)n3C)ccc2c1 (stereo unspecified) -1.2

Lookup O=C1Nc2ccc(I)cc2C1=Cc1cc(Br)c(O)c(Br)c1 4.1

Lookup COc1cc(Nc2ncc3c(C)nc(-c4cccc(Oc5ccccc5)c4)n3n2)cc(OC)c1OC 3.2

Lookup Fc1ccc(-c2nc3n(c2-c2ccncc2)CCS3)cc1 2.75

Lookup C#Cc1cccc(Nc2ncnc3ccc(OCCCCNCCS(C)(=O)=O)cc23)c1 6.01

Lookup Clc1ccc(CNc2nccc(-c3cnn4ncccc34)n2)cc1 1.6

Lookup NC(=O)c1cc(-c2ccc(F)cc2)cc(-c2ccncc2)c1N 3.59

Lookup NS(=O)(=O)c1ccc(N/N=C2\C(=O)Nc3ccc(-c4cnco4)cc32)cc1 0.19

Lookup O=C(Nc1ccc(Oc2ccc3[nH]c(NC(=O)c4ccccc4)nc3c2)cc1)Nc1cc(C(F)(F)F)ccc1F 2.49

###

Please go through the items and note down their inhibition.
Target: Serine/threonine-protein kinase 3 (Homo sapiens);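 note: each value is the mean inhibition of MST2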
Sequence (whole entry): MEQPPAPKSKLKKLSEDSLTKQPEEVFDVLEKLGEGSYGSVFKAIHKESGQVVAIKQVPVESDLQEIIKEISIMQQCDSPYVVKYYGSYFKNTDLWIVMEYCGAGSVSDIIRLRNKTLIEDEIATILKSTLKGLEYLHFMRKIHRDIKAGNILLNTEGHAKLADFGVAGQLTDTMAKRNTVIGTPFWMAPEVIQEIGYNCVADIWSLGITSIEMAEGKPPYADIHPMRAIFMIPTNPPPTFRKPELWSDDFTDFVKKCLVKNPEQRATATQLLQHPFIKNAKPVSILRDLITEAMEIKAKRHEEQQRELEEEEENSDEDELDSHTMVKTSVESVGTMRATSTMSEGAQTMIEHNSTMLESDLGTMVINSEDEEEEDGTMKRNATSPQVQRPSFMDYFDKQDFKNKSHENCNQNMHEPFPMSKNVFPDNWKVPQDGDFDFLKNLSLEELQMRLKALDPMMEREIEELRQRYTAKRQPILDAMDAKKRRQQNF
Settings: at 1 µM
Hi! Could you send only the number? It should be in %, unit omitted.

Fill in the recorded inhibition for this compound, with Serine/threonine-protein kinase 3 (Homo sapiens) as test system: C/C(Nc1ccc(S(N)(=O)=O)cc1)=C1/C(=O)Nc2ccccc21 42.3

Lookup CCc1ccc(Oc2nccc(-c3c(-c4ccc(F)cc4)ncn3C3CCNCC3)n2)cc1 5.88

Lookup O=C1Nc2ccc(I)cc2C1=Cc1cc(Br)c(O)c(Br)c1 19.5

Lookup CN(C)CCOc1ccc(-c2cc(-c3ccc4c(c3)CCC4=NO)c(-c3ccncc3)o2)cc1 1.19

Lookup C[C@@H](Oc1cc(-n2cnc3ccc(OC4CCN(C)CC4)cc32)sc1C(N)=O)c1ccccc1Cl 13.4

Lookup Fc1ccc(-c2ncn(C3CCNCC3)c2-c2ccnc(Oc3ccc(F)c(F)c3)n2)cc1 9.55

Lookup Cc1ccc(C(=O)NC2CCC2)cc1-c1ccc(C(=O)NCC2CC2)cc1 1.53

Lookup COc1cccc(/C=N/Nc2ncnc3c2cnn3-c2cccc(OC)c2)c1 3.95

Lookup COc1cc(N2CCN(C(C)C)CC2)ccc1Nc1nc(Nc2ccc(F)cc2C(=O)NC[C@@H](O)CO)c2cc[nH]c2n1 7.9

Lookup O=C1NC(=O)C(c2cccc(Cl)c2)=C1Nc1ccc(Cl)c(C(=O)O)c1 9.28

Lookup COc1cc(Nc2ncc(-c3ccccc3)o2)cc(OC)c1OC -1.87

Lookup NS(=O)(=O)c1ccc(Nc2cc(-c3ccc(O)c(F)c3)n[nH]2)cc1 9.64

Lookup O=C(Nc1n[nH]c2cc(-c3ccccc3)ccc12)C1CC1 6.35

Lookup C#Cc1cccc(Nc2ncnc3ccc(OCCCCNCCS(C)(=O)=O)cc23)c1 7.49

Lookup CCN(CC)Cc1ccc(Nc2nccc(-c3cnn4ncccc34)n2)cc1 9.79

Lookup COc1ccc2cc(-c3c(-c4ccncc4)nc(-c4ccc([S+](C)[O-])cc4C)n3C)ccc2c1 (stereo not given) 17.3

Lookup Fc1ccc(-c2ncn(C3CCNCC3)c2-c2ccnc(Oc3ccc4c(c3)OCO4)n2)cc1 10.8

Lookup COc1ccc(C2=C(N3CCc4ccccc43)C(=O)NC2=O)cc1 6.17

Lookup CCS(=O)(=O)c1ccc(OC)c(Nc2ncc(-c3cccc(-c4ccccc4F)c3)o2)c1 -0.3

Lookup CCc1cccc(CC)c1/C=C/c1cncc(C(=O)NC)c1 3.95

Lookup c1ccc(Oc2ccc(Nc3ncc(-c4ccccc4)o3)cc2)cc1 0.37

Lookup Cc1nnc(-c2ccc(C)c(-c3ccc(C(=O)NCc4ccc(Cl)cc4)cc3)c2)o1 5.51

Lookup N#Cc1ccc(Oc2nccc(-c3c(-c4ccc(F)cc4)ncn3C3CCNCC3)n2)cc1 4.78

Lookup COc1cc2ncn(-c3cc(OCc4ccccc4C(F)(F)F)c(C(C)=O)s3)c2cc1OC 7.42

Lookup CN(C)CCCNc1nccc(-c2c(-c3ccc(F)cc3)nn3cc(C(F)(F)F)ccc23)n1 3.61

Lookup COc1ccc2cc(-c3c(-c4ccncc4)nc(-c4ccc(S(C)(=O)=O)cc4C)n3C)ccc2c1 12.6

Lookup Clc1ccc(CNc2nccc(-c3cnn4ncccc34)n2)cc1 3.57

Lookup COc1cc2ncn(-c3cc(OCc4cccs4)c(C(N)=O)s3)c2cc1OC 62.6

Lookup Nc1nccc(-c2c(-c3ccc(F)cc3)ncn2C2CCC(O)CC2)n1 (stereo not given) 14.6

Lookup CS(=O)(=O)CCNCc1cc(-c2cc3c(Nc4ccc(OCc5cccc(F)c5)c(Cl)c4)ncnc3s2)cs1 6.16

###

Please go through the items and note down their inhibition.
target: Inhibitor of nuclear factor kappa-B kinase subunit alpha (Homo sapiens); conditions: at 1 µM;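 note: mean inhibition of IKKA, from the GSK PKIS data set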
Hi! Could you send only the number? It should be in %, unit omitted.

Fill in the recorded inhibition for this molecule, with Inhibitor of nuclear factor kappa-B kinase subunit alpha (Homo sapiens) as test system: O=C(Nc1n[nH]c2nc(-c3ccco3)ccc12)C1CC1 -0.84

Lookup COc1cc(Nc2ncc(-c3ccccc3)o2)cc(OC)c1OC 4.62

Lookup CS(=O)(=O)CCNCc1cc(-c2cc3c(Nc4ccc(OCc5cccc(F)c5)c(Cl)c4)ncnc3s2)cs1 9.95

###

molecular target: Ribosomal protein S6 kinase alpha-3 (Homo sapiens); conditions: at 1 µM
Description: GSK_PKIS: RSK2 mean inhibition at 1 uM [Nanosyn]
Please go through the items and note down their inhibition.
Hi! Could you send only the number? It should be in %, unit omitted.

Report inhibition for COc1cccc(-n2cnc3c(N/N=C/c4ccncc4)ncnc32)c1 please. 4.76

Lookup Fc1ccc(-c2ncn(CCCN3CCOCC3)c2-c2ccncc2)cc1 -0.73

Lookup Nc1nccc(-c2c(-c3ccc(F)cc3)ncn2C2CCC(O)CC2)n1 (configuration not stated) -0.98

Lookup CN(C)CCCNc1nccc(-c2c(-c3ccc(F)cc3)nn3cc(C(F)(F)F)ccc23)n1 2.23

Lookup CCN(CC)Cc1ccc(Nc2nccc(-c3cnn4ncccc34)n2)cc1 2.49

Lookup NS(=O)(=O)c1ccc(Nc2cc(-c3ccc(O)c(F)c3)n[nH]2)cc1 56.4

Lookup COc1cc2ncn(-c3cc(OCc4ccccc4C(F)(F)F)c(C(C)=O)s3)c2cc1OC 1.14
